System: NIH3T3
Experiment: Cytotoxic Profiling of Annotated Libraries Using Quantitative High-Throughput Screening (AID 1296008); further: nearly all actives have a fitted effect of over 60% in size
Conditions: Five cell lines viability, CellTiter-Glo ATP luminescence, 48-72 h
Inconclusive results are not listed. Active and inactive are the calls of the source. The call rests on the fitted dose curve; in most records, active means well fitted inhibition curve with a large enough effect; inconclusive means small, poorly fitted or top-dose-only effect; inactive means flat fitted curve, though single readings scatter.
A correct response names exactly one class from Yes = active, No = inactive

Here are 7 compounds together with their reported answers.
compound	cat
COc1cc(CC(COC2OC(CO)C(O)C(O)C2O)c2cc(/C=C/CO)cc(OC)c2O)ccc1O (stereo not drawn)	No
COc1cc2c(cc1OC)CN(C(=O)[C@@H](NCc1ccncc1)C(C)(C)C)CC2	No
C=CCc1ccc(O[C@@H]2O[C@H](CO[C@@H]3O[C@H](CO)[C@@H](O)[C@H](O)[C@H]3O)[C@@H](O)[C@H](O)[C@H]2O)c(O)c1	No
CC(C)CC(=O)OC[C@H]1O[C@@](COC(=O)CC(C)C)(O[C@H]2O[C@H](CO)[C@@H](O)[C@H](O)[C@H]2O)[C@@H](OC(=O)CC(C)C)[C@@H]1OC(=O)CC(C)C	No
COc1ccc(C[C@H](N)C(=O)N[C@H]2[C@@H](O)[C@H](n3cnc4c(N(C)C)ncnc43)O[C@@H]2CO)cc1	Yes
CC(=O)OC1C(O)CC(O[C@@H]2O[C@H](CO)[C@@H](O)[C@H](O)[C@H]2O)C2CCC3C(=O)OC(c4ccoc4)CC3(C)C21 (stereo partly drawn)	No
COc1cc(-c2cccc(O)c2)cc2c1OCO2	No

Now, please, on to the next compound.
Ask | Record lookup: outcome of this test for C=C1C(=O)OC2CC(C)=C(C(C)CCCO[C@@H]3O[C@H](CO)[C@@H](O)[C@H](O)[C@H]3O)C(O)C12 (stereo partly drawn) ?
Reply | No
